Target: Ubiquitin carboxyl-terminal hydrolase 8 (Homo sapiens)
Assay: blocks human USP8 ubiquitin-rhodamine cleavage (AID 1645853)
Details: purified USP8, Ub-rhodamine cleavage fluorescence, 30 min; at 20 µM
About 2,000 (4.3%) of roughly 47,000 compounds were called active. No stated cut-off is given here; in the data, active means inhibition above about 30%; inactive means the rest. Only a selection was taken, and actives are over-represented in it overall.
Your response should consist of one outcome taken from 1 (active), -1 (inactive)

Dear all, I need the recorded test outcome for `Cc1nnn(C23CC4CC(CC(C(=O)NC5CCCC5)(C4)C2)C3)n1` , thank you.
1

Status in this test for `O=c1[nH]c(-c2ccccn2)nc2c1CCN(Cc1cnn(-c3ccc(F)cc3)c1)C2` ?
-1

// outcome(item) with item = `Cc1ccnc(SCc2nc(-c3ccc4c(c3)ncn4C)no2)n1`
-1

Please state the recorded outcome for this compound: `CCCNc1nc(Nc2ccc(OC)cc2)c2cnn(C)c2n1`
-1

Assay outcome for `COc1ccc(-c2c(C)noc2C)cc1S(=O)(=O)NC1CCCC1` : what was it?
-1

So what was the verdict on `Cc1ccc2c(c1)CN(S(C)(=O)=O)CC1(CCN(CC(=O)N3CCCCC3)CC1)O2` in this test?
-1
